Target: Cytochrome P450 2C9 (Homo sapiens) (UniProt P11712)
Sequence (P11712 whole entry, looked up): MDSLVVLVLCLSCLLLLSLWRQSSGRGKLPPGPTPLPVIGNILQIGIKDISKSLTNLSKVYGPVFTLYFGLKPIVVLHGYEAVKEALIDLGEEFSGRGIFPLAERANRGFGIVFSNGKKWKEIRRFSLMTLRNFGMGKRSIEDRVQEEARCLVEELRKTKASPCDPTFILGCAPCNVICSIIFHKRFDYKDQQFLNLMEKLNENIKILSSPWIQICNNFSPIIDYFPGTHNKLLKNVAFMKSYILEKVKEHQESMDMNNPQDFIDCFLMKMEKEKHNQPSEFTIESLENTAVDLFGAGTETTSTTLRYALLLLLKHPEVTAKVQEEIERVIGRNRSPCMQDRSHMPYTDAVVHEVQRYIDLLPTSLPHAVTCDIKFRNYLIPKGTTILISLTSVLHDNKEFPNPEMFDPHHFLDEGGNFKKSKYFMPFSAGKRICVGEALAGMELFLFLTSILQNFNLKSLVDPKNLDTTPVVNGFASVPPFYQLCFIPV
Test: Cytochrome P450 family 2 subfamily C member 9 (CYP2C9) small molecule antagonists: luciferase biochemical (cell-free) qHTS assay (AID 1645842); note: nearly all actives have a fitted effect of over 55% in size
Conditions: P450-Glo CYP2C9 enzyme assay, luciferin luminescence; series mostly up to 57.4 µM
Results filed as inconclusive are left out. Active and inactive are the calls of the source. Calls come from the whole dose curve; as a rule, active = well fitted inhibition curve with a large enough effect in the repeat runs; inconclusive = weak or mixed curves; inactive = no such curve, though single readings can be large or run the other way.
Parameter call: string, one of active, inactive

Per the assay record, what outcome was assigned to CN(C)CC/C=C1/c2ccccc2COc2ccc(CC(=O)O)cc21 ? inactive

Per the assay record, what outcome was assigned to O=c1[nH]c(=O)n([C@H]2CCCO2)cc1F ? inactive

Per the assay record, what outcome was assigned to c1ccc(OCc2ccc(CCCN3CCOCC3)cc2)cc1 ? inactive

* * *

Test system: CP191
Assay: qHTS profiling for inhibitors of Plasmodium falciparum proliferation (AID 504749); note: nearly all actives have a fitted effect of over 60% in size; note: potency is the fitted concentration of half-maximal effect
Conditions: P. falciparum in erythrocytes, SYBR Green DNA, 72 h; series mostly up to 28.7 µM
Results filed as inconclusive are left out. Activity calls are given as the source filed them. Calls come from the whole dose curve; as a rule, active = well fitted inhibition curve with a large enough effect; inconclusive = small, poorly fitted or top-dose-only effect; inactive = flat fitted curve, though single readings scatter.
Property: Potency

Solved cases (5 shown):
[
  {
    "Molecule": "COc1ccc(C2C(=O)c3ccccc3C2=O)cc1",
    "Potency": "inactive"
  },
  {
    "Molecule": "Oc1c(Cl)cc(Cl)cc1Sc1cc(Cl)cc(Cl)c1O",
    "Potency": "inactive"
  },
  {
    "Molecule": "COCc1c(C(C)C)nc(C(C)C)c(/C=C/[C@@H](O)C[C@@H](O)CC(=O)O)c1-c1ccc(F)cc1",
    "Potency": "inactive"
  },
  {
    "Molecule": "CC(=O)Nc1c(I)cc(I)c(C(=O)O)c1I",
    "Potency": "inactive"
  },
  {
    "Molecule": "COc1cc(OC)cc(OC)c1",
    "Potency": "inactive"
  }
]

Param readout= Potency; system= CP191; entry= CCCCCCCCCCCCCCCCOP(=O)([O-])OCC[N+](C)(C)C ; returns value. inactive

Param readout= Potency; system= CP191; entry= Cc1c(F)c(N2CCNC(C)C2)cc2c1c(=O)c(C(=O)O)cn2C1CC1 (stereo unspecified) ; returns value. inactive

Param readout= Potency; system= CP191; entry= COc1cc2c(cc1OC)C(=O)C(CC1CCN(Cc3ccccc3)CC1)C2 (stereo unspecified) ; returns value. 8.91 µM (active)

Param readout= Potency; system= CP191; entry= Nc1ccc(C(=O)Nc2ccccc2N)cc1 ; returns value. inactive

Param readout= Potency; system= CP191; entry= O=C(O)c1cc2cc(Cc3cccnc3)ccc2o1 ; returns value. inactive

Param readout= Potency; system= CP191; entry= C[C@@H]1C[C@H]2[C@@H]3CCC4=CC(=O)C=C[C@]4(C)[C@@]3(F)[C@@H](O)C[C@]2(C)[C@H]1C(=O)CO ; returns value. inactive

* * *

Assay: Drug repurposing screens with cells derived from glioblastoma tumor samples (AID 1345199); note: nearly all actives have a fitted effect of over 40% in size
Conditions: GBM patient neurospheres viability, ATP luminescence, 48 h; at 45.9 µM (top of the series); tumour line B
Inconclusive results are not listed.
Checkbox rule: activity, negative = cell killing lower than -10% = T; activity, negative = cell killing not lower than -10% = F.

These solved cases illustrate the format of a correct answer.
[
  {
    "Sample Smiles": "COC(=O)[C@@H]1CC2=CC(=O)CC[C@]2(C)[C@@]23O[C@@H]2C[C@@]2(C)[C@@H](CC[C@@]24CCC(=O)O4)[C@H]13",
    "Discrete Label": "F"
  },
  {
    "Sample Smiles": "CCOC(=O)c1cccc(N)c1",
    "Discrete Label": "T"
  },
  {
    "Sample Smiles": "COc1ccc(C2C(=O)c3ccccc3C2=O)cc1",
    "Discrete Label": "T"
  },
  {
    "Sample Smiles": "Nc1cc(Cl)c(NC2=NCCN2)c(Cl)c1",
    "Discrete Label": "F"
  },
  {
    "Sample Smiles": "CN(C)C(=S)SC(=S)N(C)C",
    "Discrete Label": "F"
  }
]

Now examine the next entry.
# check: activity, negative = cell killing < -10% for CC(C)NC[C@@H](O)COc1cccc2ccccc12 T
